Test: Plasma protein binding in rat assessed as unbound fraction
Format: ADME, cell-free
OUTCOME_MEASURE: fraction unbound

[[record]]
test_smiles = "COC[C@H](c1cnn2cc([C@@H](NC(=O)/C(F)=C\\C3CC3)C3CCC(F)(F)CC3)nc2c1)N1C[C@@H](C(F)(F)F)NC1=O"
numeric_value = 0.075


----------
Assay: Inhibition of biotinylated human IL-17A/AF647-labeled human IL-17RA protein-protein interaction preincubated for 30 mins with compound followed by addition of AF647-labeled human IL-17RA incubated for 90 min by TR-FRET assay
pIC50: −log10 of the molar value.
OUTCOME_MEASURE: pIC50

[[record]]
test_smiles = "COC[C@H](c1cnn2cc([C@@H](NC(=O)/C(F)=C\\C3CC3)C3CCC(F)(F)CC3)nc2c1)N1C[C@@H](C(F)(F)F)NC1=O"
numeric_value = 7.89

[[record]]
test_smiles = "C/C=C(\\F)C(=O)N[C@H](c1cn2ncc([C@@H](COC)N3C[C@@H](C(F)(F)F)NC3=O)cc2n1)C1CCC(F)(F)CC1"
numeric_value = 7.72

[[record]]
test_smiles = "COC[C@H](c1cnn2cc([C@@H](Nc3nnc(C)s3)C3CCC(F)(F)CC3)nc2c1)N1C[C@@H](C(F)(F)F)NC1=O"
numeric_value = 7.21

[[record]]
test_smiles = "COC[C@H](c1cnn2cc([C@@H](NC(=O)C(F)=C(C)C)C3CCC(F)(F)CC3)nc2c1)N1C[C@@H](C(F)(F)F)NC1=O"
numeric_value = 7.72

[[record]]
test_smiles = "COC[C@H](c1cnn2cc([C@@H](NC(=O)c3nonc3C)C3CCC(F)(F)CC3)nc2c1)N1C[C@@H](C(F)(F)F)NC1=O"
numeric_value = 8.00

[[record]]
test_smiles = "C/C=C(/F)C(=O)N[C@H](c1cn2ncc([C@@H](COC)N3C[C@@H](C(F)(F)F)NC3=O)cc2n1)C1CCC(F)(F)CC1"
numeric_value = 7.96


----------
Experiment: Metabolic stability in rat liver microsomes assessed as intrinsic clearance
Assay type: ADME, Microsome
Settings: read-out: CLH
OUTCOME_MEASURE: microsomal CLint (µL/min/mg)

[[record]]
test_smiles = "COC[C@H](c1cnn2cc([C@@H](Nc3nnc(C(F)(F)F)o3)C3CCC(F)(F)CC3)nc2c1)N1C[C@@H](C(F)(F)F)NC1=O"
inequality_operator = "<"
numeric_value = 25

[[record]]
test_smiles = "COC[C@H](c1cnn2cc([C@@H](NC(=O)C(F)=C(C)C)C3CCC(F)(F)CC3)nc2c1)N1C[C@@H](C(F)(F)F)NC1=O"
inequality_operator = ">"
numeric_value = 1000

[[record]]
test_smiles = "COC[C@H](c1cnn2cc([C@@H](Nc3noc(C(C)(F)F)n3)C3CCC(F)(F)CC3)nc2c1)N1C[C@@H](C(F)(F)F)NC1=O"
inequality_operator = "="
numeric_value = 33

[[record]]
test_smiles = "CC(F)(F)c1nnc(N[C@H](c2cn3ncc([C@@H](C4CC4)N4C[C@@H](C(F)(F)F)NC4=O)cc3n2)C2CCC(F)(F)CC2)o1"
inequality_operator = "="
numeric_value = 37

[[record]]
test_smiles = "COC[C@H](c1cnn2cc([C@@H](NC(=O)C(C)(F)F)C3CCC(F)(F)CC3)nc2c1)N1C[C@@H](C(F)(F)F)NC1=O"
inequality_operator = "="
numeric_value = 26

[[record]]
test_smiles = "COC[C@H](c1cnn2cc([C@@H](Nc3nnc(C)o3)C3CCC(F)(F)CC3)nc2c1)N1C[C@@H](C(F)(F)F)NC1=O"
inequality_operator = "="
numeric_value = 28

[[record]]
test_smiles = "COC[C@H](c1cnn2cc([C@@H](Nc3cc(C)on3)C3CCC(F)(F)CC3)nc2c1)N1C[C@@H](C(F)(F)F)NC1=O"
inequality_operator = "="
numeric_value = 156

[[record]]
test_smiles = "COC[C@H](c1cnn2cc([C@@H](NC(=O)/C(F)=C3\\CCOC3)C3CCC(F)(F)CC3)nc2c1)N1C[C@@H](C(F)(F)F)NC1=O"
inequality_operator = "="
numeric_value = 321

[[record]]
test_smiles = "C/C=C(/F)C(=O)N[C@H](c1cn2ncc([C@@H](COC)N3C[C@@H](C(F)(F)F)NC3=O)cc2n1)C1CCC(F)(F)CC1"
inequality_operator = "="
numeric_value = 240

[[record]]
test_smiles = "COC[C@H](c1cnn2cc([C@@H](Nc3ncc(C4CC4)o3)C3CCC(F)(F)CC3)nc2c1)N1C[C@@H](C(F)(F)F)NC1=O"
inequality_operator = ">"
numeric_value = 1000

